// reported growth per item
# Test system: SNB-75 CNS
# experimentDescription: NCI-60 one-dose screen, 48 h (100 = growth as untreated, 0 = no growth, -100 = all killed)
# particulars: 10 µM unless noted
The panel holds about 83,000 compounds, 20% with a hit somewhere; the sample as a whole holds those more often.
measuredEndpoint: growth (%)

compound=COc1cc(-c2nccc3[nH]c(-c4ccc5cc[nH]c5c4)nc23)cc(OC)c1OC testtarget="SNB-75 CNS" testvalue=18.9
compound=COC(=O)CC[C@@H]1O[C@@H](c2cccc(C(F)(F)F)c2)[C@@H](O)[C@H]1O testtarget="SNB-75 CNS" testvalue=92.5
compound="COC(CC(F)F)c1cn(S(=O)(=O)c2ccc(C)cc2)c2ccccc12 (centres undefined)" testtarget="SNB-75 CNS" testvalue=18.6
compound="O=C(NCc1ccc(Cl)cc1Cl)C1CCC(=O)N1c1cccs1 (centres undefined)" testtarget="SNB-75 CNS" testvalue=77.6
compound="Clc1ccc2c(NC3CCC(N4CCOCC4)CC3)ccnc2c1 (centres undefined)" testtarget="SNB-75 CNS" testvalue=82.7
compound="CCC(C)(C)C(=O)O[C@H]1C[C@@H](C)C=C2C=C[C@H](C)[C@H](CC[C@@H]3CC(SCCN)CC(=O)O3)[C@H]21 (some centres undefined)" testtarget="SNB-75 CNS" testvalue=95.5
compound=CC(C)c1ccc(C(=O)Nc2nc3ccc(O)c(CN(C)C)c3s2)cc1 testtarget="SNB-75 CNS" testvalue=107
compound=C=C1C(=O)O[C@H]2[C@H]1CC/C(COC(=O)NCc1ccc(Cn3c(=O)sn(CCCCC)c3=O)cc1)=C\CC[C@@]1(C)O[C@@H]21 testtarget="SNB-75 CNS" testvalue=74.4
compound=O=C(Nc1nc2ccccc2s1)c1ccc(F)cc1 testtarget="SNB-75 CNS" testvalue=96.7
compound=N=C(N)c1ccc(-c2ccc(-c3ccc(Cl)cc3Cl)s2)cc1 testtarget="SNB-75 CNS" testvalue=88.5
compound=COc1ccc(C2=C(Br)C(=O)c3nc(C)ccc3C2=O)cc1 testtarget="SNB-75 CNS" testvalue=93.8
compound=Nc1n[nH]c2cccc(C#Cc3cccc(NC(=O)c4cc(F)cc(C(F)(F)F)c4)c3)c12 testtarget="SNB-75 CNS" testvalue=98.6
compound="CC(=O)N1N=C(c2ccc(C(F)(F)F)c(F)c2)CC1c1[nH]c(C)c(C(=O)NCC(F)(F)F)c1C (centres undefined)" testtarget="SNB-75 CNS" testvalue=-8.37
compound="N#Cc1ccc(O)c(C2=NCC(c3ccccc3)O2)c1 (centres undefined)" testtarget="SNB-75 CNS" testvalue=74.9
compound=O=C(NCCCl)Nc1ncccc1OCc1ccccc1 testtarget="SNB-75 CNS" testvalue=103
compound=COC12C=C/C(=C(/C(=O)OCc3ccncn3)C(=O)CCCCCCCCC3(OC)C=C/C(=C(/C(=O)OCc4ccncn4)C(=O)CCCCCCCC1)O3)O2 testtarget="SNB-75 CNS" testvalue=48.7
compound=CC(=O)O[C@@H]1C[C@]2(C(C)C)O[C@@]1(C)[C@@H]1CCC(C)=C1[C@@H]2OC(=O)/C=C/c1ccccc1 testtarget="SNB-75 CNS" testvalue=89.1
compound=c1ccc(Cn2cc3c(c2)-c2oncc2CC3)cc1 testtarget="SNB-75 CNS" testvalue=19
compound=C=CCn1c(C)nc2ccc(Nc3nc(Nc4ccc5nc(C)n(CC=C)c5c4)c4ccccc4n3)cc21 testtarget="SNB-75 CNS" testvalue=-95.2

---

# Test system: MCF7 breast
# experimentDescription: NCI-60 one-dose screen, 48 h (100 = growth as untreated, 0 = no growth, -100 = all killed)
# particulars: 10 µM unless noted
About 83,000 compounds went through this panel and 20% of them were active in at least one assay; those are over-represented in the sample as a whole.
// reported growth per item
measuredEndpoint: growth (%)

molecule=COCCNC(=O)Nc1ccc2nc(-c3cccs3)c(-c3cccs3)nc2c1 testtarget="MCF7 breast" measuredendpoint=growth testvalue=78.9
molecule=C=CCn1c(C)nc2ccc(Nc3nc(Nc4ccc5nc(C)n(CC=C)c5c4)c4ccccc4n3)cc21 testtarget="MCF7 breast" measuredendpoint=growth testvalue=-87.9
molecule=N#Cc1nc(-c2ccc(F)cc2)oc1S(=O)(=O)N1CCCCC1 testtarget="MCF7 breast" measuredendpoint=growth testvalue=56
molecule=Cc1ccc(-c2nc(N3CCCNCC3)c3oc(-c4ccccc4)nc3n2)cc1 testtarget="MCF7 breast" measuredendpoint=growth testvalue=-74.7
molecule=O=C(Nc1nc2cc(C(=O)N3CCN(C(c4ccccc4)c4ccccc4)CC3)ccc2o1)c1ccc(NC2CCCCC2)c([N+](=O)[O-])c1 testtarget="MCF7 breast" measuredendpoint=growth testvalue=50.2
molecule=COc1cccc(CNc2ccc3ncnc(Nc4ccc(F)c(Cl)c4)c3c2)c1 testtarget="MCF7 breast" measuredendpoint=growth testvalue=65.2
molecule=Cc1cc(=O)oc2cc(OCc3nn4c(Nc5nc6ccccc6s5)c(-c5ccccc5)nc4s3)ccc12 testtarget="MCF7 breast" measuredendpoint=growth testvalue=84.1
molecule=O=[N+]([O-])c1cccc(-c2nc3cc4nc5ccccc5[nH]c4cc3n2)c1 testtarget="MCF7 breast" measuredendpoint=growth testvalue=77.7
molecule=COC1=CC(c2ccc[nH]2)=N/C1=C\c1[nH]c(C)c(CC(=O)NCc2ccccc2)c1C testtarget="MCF7 breast" measuredendpoint=growth testvalue=11
molecule=CC1=C2[C@@H](CC1)[C@]1(C)O[C@@](C(C)C)(C[C@H]1OC(=O)[C@H](C)O)[C@H]2OC(=O)/C=C/c1ccccc1 testtarget="MCF7 breast" measuredendpoint=growth testvalue=81.6
molecule=Nc1n[nH]c2cccc(C#Cc3cccc(NC(=O)c4cc(F)cc(C(F)(F)F)c4)c3)c12 testtarget="MCF7 breast" measuredendpoint=growth testvalue=68.4
molecule=COc1ccc(Nc2nnc(-c3ccc(OC)c(OC)c3)o2)cc1 testtarget="MCF7 breast" measuredendpoint=growth testvalue=90.9
molecule=COC1=CC(c2ccc[nH]2)=N/C1=C\c1[nH]c(C)c(C(=O)OC(C)C)c1C testtarget="MCF7 breast" measuredendpoint=growth testvalue=-35.5
molecule="CN(C)CCNC(=O)c1ccc(-c2nc3ccc4[nH]ncc4c3c3c2C2CCC3C2)cc1 (stereo not drawn)" testtarget="MCF7 breast" measuredendpoint=growth testvalue=9.64
molecule=CC(C)C1=NOC(=O)C1=Cc1cn(-c2ccccc2)nc1-c1ccc(F)cc1 testtarget="MCF7 breast" measuredendpoint=growth testvalue=50.8
molecule=COc1cc2c(cc1OCCCN1CCN(CCCOc3cc4c(cc3OC)C(=O)N3CCC[C@H]3C=N4)CC1)C=CC(C)(C)O2 testtarget="MCF7 breast" measuredendpoint=growth testvalue=-100
molecule=COc1ccccc1NC(=O)N=Nc1c(O)[nH]c2ccccc12 testtarget="MCF7 breast" measuredendpoint=growth testvalue=59
molecule="C=C(C)[C@@H]1CC[C@]2(C(=O)O)CC[C@]3(C)[C@H](CC[C@@H]4[C@@]5(C)CCC(NC(=O)c6cccc(OC(C)=O)c6OC(C)=O)C(C)(C)[C@@H]5CC[C@]43C)[C@@H]12 (stereo partly drawn)" testtarget="MCF7 breast" measuredendpoint=growth testvalue=4.17

---

# Tested on: NCI-H522 lung
# experimentDescription: NCI-60 one-dose screen, 48 h (100 = growth as untreated, 0 = no growth, -100 = all killed)
# particulars: 10 µM unless noted
About 83,000 compounds went through this panel and 20% of them were active in at least one assay; those are over-represented in the sample as a whole.
measuredEndpoint: growth (%)

molecule=c1ccc2cc(C[n+]3ccn(CCCCCCCCCCn4cc[n+](Cc5ccc6ccccc6c5)c4)c3)ccc2c1 testvalue=-72.3
molecule=COc1ccc(C/C(C)=C(\c2ccc(Cl)cc2)c2ccc(OCCN3CCCCC3)cc2)cc1 testvalue=87.3
molecule=COc1ccc(-c2cc(-c3ccc(Cl)cc3)c(C#N)c(=O)n2Cc2ccc(C(=O)Nc3ccccc3N)cc2)cc1 testvalue=53.9
molecule=CCNCCNc1cc(C2CCCCC2)c(C#N)c2nc3ccccc3n12 testvalue=-9.52
molecule=COc1ccc(/C=C(\C#N)n2nnc3cc(Cl)ccc32)cc1 testvalue=-15.7
molecule=C/C(Cc1ccc(Cl)cc1)=C(\c1ccc(O)cc1)c1ccc(Cl)cc1 testvalue=84.1
molecule=Fc1cc2c(cc1Cl)N(c1ncnc3ccc(-c4ccc5n[nH]nc5c4)cc13)CC2 testvalue=67.3
molecule="N#CC1=C(c2ccccc2)Nc2c(c(-c3ccc(Cl)cc3)nn2-c2ccccc2)C12C(=O)Nc1ccc(Cl)cc12 (centres undefined)" testvalue=72.2
molecule=CCCOC(=O)Nc1nc2ccc(SCC(C)C)cc2s1 testvalue=24.1

---

// reported growth per item
# Test system: UACC-257 melanoma
# experimentDescription: NCI-60 one-dose screen, 48 h (100 = growth as untreated, 0 = no growth, -100 = all killed)
# particulars: 10 µM unless noted
Compounds without any hit were thinned out: in the full panel of roughly 83,000, 20% have a hit.
measuredEndpoint: growth (%)

smilesrecord=CCCCC1=C(P(=O)(O)O)N[C@H](C(=O)O)CS1 testtarget="UACC-257 melanoma" testvalue=86.6
smilesrecord=COc1ccc(-c2cc(-c3cc(OC)c(OC)c(OC)c3)c(C#N)c(=O)n2CCCCC(=O)NO)cc1 testtarget="UACC-257 melanoma" testvalue=71.7
smilesrecord=CSc1nc2ncc([N+](=O)[O-])c(=O)n2[nH]1 testtarget="UACC-257 melanoma" testvalue=105
smilesrecord=COc1ccc(OC)c(/C=N/Nc2ncnc3c2c(C)nn3C)c1 testtarget="UACC-257 melanoma" testvalue=112
smilesrecord=Cc1ccc2c(n1)C(=O)C(Br)=C(CC(C)C)C2=O testtarget="UACC-257 melanoma" testvalue=85.1
smilesrecord=OCCn1cc(-c2nc(-c3c[nH]c4ncccc34)cs2)c2ccccc21 testtarget="UACC-257 melanoma" testvalue=93.1
